Attribute: glycan array binding signal (z-score)
- target-or-test-system: Gal(b1-4)GlcNAc(b1-3)Gal(b1-4)GlcNAc(b1-2)[Gal(b1-4)GlcNAc(b1-3)Gal(b1-4)GlcNAc(b1-6)]Man(a1-6)[Gal(b1-4)GlcNAc(b1-3)Gal(b1-4)GlcNAc(b1-2)Man(a1-3)]Man(b1-4)GlcNAc(b1-4)GlcNAc
- assay-summary: glycan array binding signal (z-score within array); higher = stronger binding
- condition-set: glycan notation: IUPAC condensed, linker removed
This is one part of a sample in which the strongest signals are shown more often than they occur.
Format: numeric value only, no unit, no commentary.

Example cases with answers are listed next.
LSECtin (Homo sapiens), Q6UXB4 (protein) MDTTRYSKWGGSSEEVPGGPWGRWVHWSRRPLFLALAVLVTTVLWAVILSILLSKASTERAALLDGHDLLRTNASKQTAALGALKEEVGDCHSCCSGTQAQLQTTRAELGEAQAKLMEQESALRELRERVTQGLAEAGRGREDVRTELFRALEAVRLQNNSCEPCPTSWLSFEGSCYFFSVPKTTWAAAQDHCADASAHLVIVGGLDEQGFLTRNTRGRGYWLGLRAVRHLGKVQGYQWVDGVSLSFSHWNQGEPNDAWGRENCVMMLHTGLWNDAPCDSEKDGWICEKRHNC = -0.139
DC-Sign-R (Homo sapiens), Q9H2X3 (protein) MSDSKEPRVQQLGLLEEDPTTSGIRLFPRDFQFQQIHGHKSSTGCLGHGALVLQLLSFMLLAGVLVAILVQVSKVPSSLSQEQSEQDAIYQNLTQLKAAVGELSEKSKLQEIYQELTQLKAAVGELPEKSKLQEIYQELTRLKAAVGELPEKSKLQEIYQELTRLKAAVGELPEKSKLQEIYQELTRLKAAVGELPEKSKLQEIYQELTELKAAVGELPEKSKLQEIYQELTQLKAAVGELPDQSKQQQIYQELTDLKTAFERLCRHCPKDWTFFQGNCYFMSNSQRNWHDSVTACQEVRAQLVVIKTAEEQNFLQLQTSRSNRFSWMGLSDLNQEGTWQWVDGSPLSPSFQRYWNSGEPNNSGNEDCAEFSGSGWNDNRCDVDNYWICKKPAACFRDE = 3.03
MXA PilAct-eGFP (Myxococcus xanthus), Q59589 (protein) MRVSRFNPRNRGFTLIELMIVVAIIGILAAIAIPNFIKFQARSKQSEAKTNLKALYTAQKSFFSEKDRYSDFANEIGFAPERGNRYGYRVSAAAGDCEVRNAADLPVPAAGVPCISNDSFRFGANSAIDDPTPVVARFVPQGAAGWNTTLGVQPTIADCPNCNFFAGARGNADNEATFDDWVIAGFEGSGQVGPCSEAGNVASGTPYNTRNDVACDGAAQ = -0.993

Consider the record given below.
GET /values?readout=glycan array binding signal (z-score)&item= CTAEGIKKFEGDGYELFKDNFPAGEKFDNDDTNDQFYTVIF [MUB40 (Lactobacillus reuteri)] -0.339
